# Tested on: MS2 coat protein
# Assay Notes: apparent KD of MS2 coat protein; designed switch direction (-1 OFF switch, 1 ON switch): -1; higher = weaker reporter binding
# Measurement Parameters: input ligand: none
// reported apparent KD of MS2 coat protein per item
Numbers only here, please. The scale is nM.

Consider the worked cases shown below.
>>> result_number("CUGAGUUCAGGAUAUACAUGAGGAUCACCCAUGUAAAGUAGCUUGCGUACAGGCAGAUGUAGAAGGGAAUUCGG [Mod of JL 6 - Jieux - Exclusion 3] (Eterna round: R97, puzzle: Exclusion 3)")
19
>>> result_number("AAUAACAGAGGAUAUACUAUUUUAUGUGUUUGUUAUUUUGAACAUGAGGAUCACCCAUGUAGAAGGCUGAUUAA [JMF 49] (Eterna round: R96, puzzle: Exclusion 2)")
44.1
>>> result_number("AGCCAAGCAGGAUAUGCCCGGAAUAACAUGAGGAUCACCCAUGUGACCGAUUGAUGUUCUGCAGAAGGGCUUGGAA [Erxesoan mod] (Eterna round: R97, puzzle: Exclusion 5)")
28.8
>>> result_number("CUGAAAUUCGUAAGGAUAUGUUCCAUCAAAUAGGAGCAGAAGGUACAUGAGGAUCACCCAUGUCAGUAGAUCCA [Eternabot (L1) Solution 47] (Eterna round: R97, puzzle: Brourd's mod of Exclusion 4)")
40.2
>>> result_number("CUUUAACAAGCGAGAUCCAACAUGAGGAUCACCCAUGUGCAUCCACGAUUAGUGGGUGCGAAAGCUCGUCUUAUAUG [v1] (Eterna round: R97, puzzle: Sensor, turn-off variant 1)")
21.6

Exercise: Recorded apparent KD of MS2 coat protein for GCGGACUUGAACGUGAGUUCAGAGACAUGAGGAUCACCCAUGUAGGAUAUCGAUUCGAAACGAAUCGAGAAGGGCAUAGUCCGC [JL denovo 13] (Eterna round: R96, puzzle: Exclusion NG 3) , please?
Solution: 16.1

Exercise: Recorded apparent KD of MS2 coat protein for ACUCAACAUGAGGAUCACCCAUGUCAGGAUAUCUCUAUUUUGCGCGGGAGCAGAAUAGAGAGAAGGGACAACCU [Eternabot (Original) Solution 3] (Eterna round: R97, puzzle: Exclusion 1) , please?
Solution: 42.8

Exercise: Recorded apparent KD of MS2 coat protein for CCUAGUUGGUAAGGAUAUCCUACACUGUUCUGACCCGGGCAUGCUACAUGAGGAUCACCCAUGUGGGAGAAGGUGCGUCAUCGC [Design 15] (Eterna round: R96, puzzle: Exclusion NG 2) , please?
Solution: 37.3

Exercise: Recorded apparent KD of MS2 coat protein for AACCUGAGGCAAAGCUUUAGGUGUACAUGAGGAUCACCCAUGUAGGAUAUGGUAGGCAAAGCUUACCAGAAGGACAUGUUAAUU [Mat - Exclusion NG 3 - Mod of JL - D38] (Eterna round: R96, puzzle: Exclusion NG 3) , please?
Solution: 67
